TARGET_OR_TEST_SYSTEM: human Farnesoid X Receptor (FXR) ligand binding domain (GST-FXR LBD) (Homo sapiens, UniProt Q96RI1)
Construct: purchased Invitrogen
Sequence (Q96RI1 193-472 isoform Q96RI1-2): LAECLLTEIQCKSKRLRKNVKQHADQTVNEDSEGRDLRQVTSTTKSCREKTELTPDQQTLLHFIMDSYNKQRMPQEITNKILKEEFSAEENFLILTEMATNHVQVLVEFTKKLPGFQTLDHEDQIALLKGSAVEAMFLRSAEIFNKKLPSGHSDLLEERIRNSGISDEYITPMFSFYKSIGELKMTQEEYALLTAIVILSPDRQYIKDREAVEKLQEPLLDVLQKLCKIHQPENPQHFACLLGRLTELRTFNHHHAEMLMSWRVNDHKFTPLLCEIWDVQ
ASSAY_REMARKS: Human GST-FXR LBD co-activator interaction assay (HTRF)
Type: biochemical
CONDITIONS: GST-FXR LBD / biotin-SRC-1 peptide FRET; response relative to GW4064; read-out: FXR Co-activator interaction assay (EC50)
OUTCOME_MEASURE: log10 of EC50 (log10 of the value in nM)

>  <MOLECULE>
O=C(O)c1noc2cc(N3C4CC[C@H]3CC(OCc3c(-c5ccccc5OC(F)(F)F)noc3C3CC3)C4)ccc12 (some centres unmarked)

>  <RESULT>
0.91

$$$$
>  <MOLECULE>
COC(=O)c1cc(C)nc(N2C3CC[C@H]2CC(OCc2c(-c4c(F)cccc4F)noc2C2CC2)C3)n1 (some centres unmarked) [Example 22-18A]

>  <RESULT>
1.63

$$$$
>  <MOLECULE>
O=C(O)c1cc(F)c2nc(N3C4CC[C@H]3C[C@H](OCc3c(-c5c(F)cccc5F)noc3C3CC3)C4)sc2c1

>  <RESULT>
-0.24

$$$$
>  <MOLECULE>
COC(=O)c1cc(F)c2nc(N3C4CC[C@H]3CC(OCc3c(-c5ccccc5OC(F)(F)F)noc3C3CC3)C4)sc2c1 (some centres unmarked)

>  <RESULT>
1.15

$$$$
>  <MOLECULE>
Cc1cc(C(=O)O)nc(N2C3CC[C@H]2CC(OCc2c(-c4cccc(F)c4)noc2C2CC2)C3)n1 (some centres unmarked)

>  <RESULT>
2.68

$$$$
>  <MOLECULE>
Cc1cc(C(=O)O)cc(N2C3CC[C@H]2CC(OCc2c(-c4ccccc4C(F)(F)F)noc2C2CC2)C3)n1 (some centres unmarked)

>  <RESULT>
2.41

$$$$
>  <MOLECULE>
O=C(O)C1(c2ccc(N3C4CC[C@H]3CC(OCc3c(-c5ccccc5OC(F)(F)F)noc3C3CC3)C4)cc2)CC1 (some centres unmarked)

>  <RESULT>
1.32

$$$$
>  <MOLECULE>
Cc1cc(C(=O)O)nc(N2C3CC[C@H]2C[C@H](OCc2c(C4CCC5(CC4)CC5)noc2C2CC2)C3)n1

>  <RESULT>
1.54

$$$$
>  <MOLECULE>
O=C(O)c1cnc(N2C3CC[C@H]2C[C@H](OCc2c(-c4ccccc4OC(F)(F)F)noc2C2CC2)C3)cn1

>  <RESULT>
0.48

$$$$
>  <MOLECULE>
Cc1cc(C(=O)O)nc(N2C3CC[C@H]2CC(OCc2c(-c4ccccc4C)noc2C2CC2)C3)n1 (some centres unmarked)

>  <RESULT>
1.18

$$$$
>  <MOLECULE>
COC(=O)c1ccc(N2[C@@H]3CC[C@H]2C[C@@H](OCc2c(-c4c(F)cccc4F)noc2C2CC2)C3)nc1 [Example 22-13A]

>  <RESULT>
1.90

$$$$
>  <MOLECULE>
COC(=O)c1cc(C)nc(N2C3CC[C@H]2C[C@H](OCc2c(-c4ccccc4OC(F)(F)F)noc2C2CC2)C3)n1

>  <RESULT>
1.26

$$$$
>  <MOLECULE>
Cn1c(C(=O)O)cc2ccc(N3C4CC[C@H]3CC(OCc3c(-c5ccccc5OC(F)(F)F)noc3C3CC3)C4)cc21 (some centres unmarked)

>  <RESULT>
0.30

$$$$
>  <MOLECULE>
COC(=O)c1cc(F)c(N2C3CC[C@H]2CC(OCc2c(-c4ccccc4C(F)(F)F)noc2C2CC2)C3)c(F)c1 (some centres unmarked)

>  <RESULT>
2.62

$$$$
